subject of test: UniProt Q06187
assay overview: BTK Enzyme Assay
Assay type: biochemical
measurement setup: 1 uM compound; read-out: BTK (% inh @ 1 uM)
outcome measure: inhibition at 1 µM

Past entries and their recorded results:
molecule	subject of test	inhibition at 1 µM
C=CC(=O)Nc1cc(Nc2nc(-c3ccc(NC)cc3)c3sccc3n2)c(OC)cc1N(C)CC [Compound 39]	UniProt Q06187	> 30%
C=CC(=O)Nc1cc(Nc2nc(-c3ccccc3NC)c3sccc3n2)c(OC)cc1N1CCN(C)CC1 [Compound 29]	UniProt Q06187	< 30%

Here's the next entry for you.
Test system UniProt Q06187; read-out inhibition at 1 µM; what value for C=CC(=O)Nc1cc(NC2=NC(c3cccc(N)c3)C3SC=CC3=N2)c(OC)cc1N1CCN(C)CC1 (centres unmarked) [Compound 19] ?
< 30%

---

subject of test: EGFR T790M (Homo sapiens, UniProt P00533, T790M)
Sequence (P00533 25-1210 T790M): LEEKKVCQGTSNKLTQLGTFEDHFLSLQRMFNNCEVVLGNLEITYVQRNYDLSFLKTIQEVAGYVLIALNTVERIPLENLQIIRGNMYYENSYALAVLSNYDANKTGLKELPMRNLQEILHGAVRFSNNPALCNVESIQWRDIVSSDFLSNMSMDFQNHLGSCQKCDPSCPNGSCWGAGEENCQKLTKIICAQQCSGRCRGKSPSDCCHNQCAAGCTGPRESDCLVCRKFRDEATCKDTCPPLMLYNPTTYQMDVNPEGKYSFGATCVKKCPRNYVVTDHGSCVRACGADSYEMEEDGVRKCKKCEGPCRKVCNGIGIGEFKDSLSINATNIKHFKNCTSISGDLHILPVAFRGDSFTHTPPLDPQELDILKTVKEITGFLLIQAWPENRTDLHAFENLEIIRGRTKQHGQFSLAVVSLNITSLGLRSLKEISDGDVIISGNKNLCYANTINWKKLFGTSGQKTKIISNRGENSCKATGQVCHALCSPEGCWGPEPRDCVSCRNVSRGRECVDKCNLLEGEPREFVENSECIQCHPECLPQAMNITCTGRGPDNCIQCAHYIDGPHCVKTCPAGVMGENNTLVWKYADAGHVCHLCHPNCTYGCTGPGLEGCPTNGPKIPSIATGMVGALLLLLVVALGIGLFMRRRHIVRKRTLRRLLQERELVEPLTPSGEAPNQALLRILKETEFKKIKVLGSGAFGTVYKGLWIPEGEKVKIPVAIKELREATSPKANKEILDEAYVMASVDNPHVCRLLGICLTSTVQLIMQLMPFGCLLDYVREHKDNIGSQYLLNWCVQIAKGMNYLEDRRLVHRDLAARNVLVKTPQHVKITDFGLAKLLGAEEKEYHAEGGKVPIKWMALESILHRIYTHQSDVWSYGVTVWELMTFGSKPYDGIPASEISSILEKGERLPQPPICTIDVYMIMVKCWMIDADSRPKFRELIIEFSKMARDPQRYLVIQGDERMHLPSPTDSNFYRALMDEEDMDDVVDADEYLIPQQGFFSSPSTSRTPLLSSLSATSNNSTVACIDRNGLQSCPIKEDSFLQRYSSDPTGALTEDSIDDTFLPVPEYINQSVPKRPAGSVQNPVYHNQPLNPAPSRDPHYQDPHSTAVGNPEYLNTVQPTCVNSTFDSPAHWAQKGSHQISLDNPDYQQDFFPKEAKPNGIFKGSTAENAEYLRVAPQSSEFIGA
assay overview: EGFR Enzyme Assay
Type: biochemical
measurement setup: 1 uM compound, read-out: T790M (% inh @ 1 uM)
inhibition at 1 µM listing for selected compounds.

Past entries and their recorded results:
compound	subject of test	inhibition at 1 µM
C=CC(=O)Nc1cc(NC2=NC(c3cccc(NC(C)(C)C)c3)C3SC=CC3=N2)c(OC)cc1N(C)C (stereo not drawn) [Compound 5]	EGFR T790M (Homo sapiens, UniProt P00533, T790M)	> 50%
C=CC(=O)Nc1cc(Nc2nc(-c3ccccc3NC)c3ccsc3n2)c(OC)cc1N1CCN(C)CC1 [Compound 43]	EGFR T790M (Homo sapiens, UniProt P00533, T790M)	< 50%

Here's the next entry for you.
Would you kindly share the measured inhibition at 1 µM for C=CC(=O)Nc1cc(Nc2nc(-c3c[nH]c4ccccc34)c3sccc3n2)c(OC)cc1N(C)CCN(C)C [Compound 1] ?
> 50%

---

subject of test: BTK (Homo sapiens)
assay overview: BTK Enzyme Assay
Format: biochemical
measurement setup: 1 uM compound; read-out: BTK (% inh @ 1 uM)
outcome measure: inhibition at 1 µM

compound	inhibition at 1 µM
C=CC(=O)Nc1cc(Nc2nc(-c3cccc(N(C)C)c3)c3sccc3n2)c(OC)cc1N1CCN(C)CC1 [Compound 24]	> 30%
C=CC(=O)Nc1cc(NC2=NC(c3cccc(N(C)C)c3)C3SC=CC3=N2)c(OC)cc1N1CCOCC1 (stereo not drawn) [Compound 10]	> 30%

Here's the next entry for you.
Would you kindly share the measured inhibition at 1 µM for C=CC(=O)Nc1cc(Nc2nc(-c3cc[nH]c3)c3ccsc3n2)c(OC)cc1N1CCN(C)CC1 [Compound 47] ?
< 30%

---

subject of test: BTK (Homo sapiens, UniProt Q06187)
Sequence (Q06187 whole entry): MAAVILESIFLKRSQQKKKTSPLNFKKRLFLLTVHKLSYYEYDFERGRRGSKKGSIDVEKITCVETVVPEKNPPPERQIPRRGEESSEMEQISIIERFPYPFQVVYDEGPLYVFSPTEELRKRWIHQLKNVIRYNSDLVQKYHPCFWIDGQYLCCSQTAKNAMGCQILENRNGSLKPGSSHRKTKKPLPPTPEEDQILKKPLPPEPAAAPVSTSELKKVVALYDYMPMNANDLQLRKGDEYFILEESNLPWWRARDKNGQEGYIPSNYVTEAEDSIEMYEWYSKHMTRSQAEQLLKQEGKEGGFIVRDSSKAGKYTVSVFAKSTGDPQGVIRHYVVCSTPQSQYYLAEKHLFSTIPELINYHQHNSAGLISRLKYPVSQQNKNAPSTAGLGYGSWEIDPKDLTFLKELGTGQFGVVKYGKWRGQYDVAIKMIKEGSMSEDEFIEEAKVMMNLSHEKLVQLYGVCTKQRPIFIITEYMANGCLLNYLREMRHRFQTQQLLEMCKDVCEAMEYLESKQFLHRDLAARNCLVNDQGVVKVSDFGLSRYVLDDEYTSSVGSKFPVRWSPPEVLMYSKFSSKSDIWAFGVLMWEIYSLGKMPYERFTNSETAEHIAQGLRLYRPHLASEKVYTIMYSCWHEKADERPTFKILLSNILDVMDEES
assay overview: BTK Enzyme Assay
Type: biochemical
measurement setup: 1 uM compound; read-out: BTK (% inh @ 1 uM)
inhibition at 1 µM listing for selected compounds.

Past entries and their recorded results:
compound	outcome measure	result
C=CC(=O)Nc1cc(Nc2nc(-c3cn(C)c4ccccc34)c3sccc3n2)c(OC)cc1N1CCOCC1	inhibition at 1 µM	> 30%
C=CC(=O)Nc1cc(Nc2nc(-c3ccn(C)c3)c3sccc3n2)c(OC)cc1N1CCN(C)CC1	inhibition at 1 µM	> 30%
C=CC(=O)Nc1cc(Nc2nc(-c3cn(C)c4ccccc34)c3sccc3n2)c(OC)cc1N(C)C	inhibition at 1 µM	> 30%
C=CC(=O)Nc1cc(Nc2nc(-c3ccccc3NC)c3sccc3n2)c(OC)cc1N(C)CCN(C)C	inhibition at 1 µM	< 30%
C=CC(=O)Nc1cc(N(C)c2nc(-c3c[nH]c4ccccc34)c3sccc3n2)c(OC)cc1N(C)CCN(C)C	inhibition at 1 µM	> 30%

Would you kindly share the measured inhibition at 1 µM for C=CC(=O)Nc1cc(Nc2nc(-c3ccc(NC)cc3)c3sccc3n2)c(OC)cc1N1CCN(C)CC1 ?
< 30%

Would you kindly share the measured inhibition at 1 µM for C=CC(=O)Nc1cc(NC2=NC(c3cccc(OC)c3)C3SC=CC3=N2)c(OC)cc1N1CCC(N(C)C)CC1 (centres unmarked) ?
< 30%

Would you kindly share the measured inhibition at 1 µM for C=CC(=O)Nc1cc(Nc2nc(-c3cccc4ccn(C)c34)c3sccc3n2)c(OC)cc1N1CCN(C)CC1 ?
> 30%

Would you kindly share the measured inhibition at 1 µM for C=CC(=O)Nc1cc(NC2=NC(c3cccc(NC)c3)C3SC=CC3=N2)c(OC)cc1N1CCN(C)CC1 (centres unmarked) ?
> 30%

---

inhibition at 1 µM listing for selected compounds.
subject of test: BTK (Homo sapiens)
assay overview: BTK Enzyme Assay
Assay type: biochemical
measurement setup: 1 uM compound; read-out: BTK (% inh @ 1 uM)

compound	result
C=CC(=O)Nc1cc(Nc2nc(-c3cccc(NC)c3)c3ccsc3n2)c(OC)cc1N(C)CCN(C)C	< 30%
C=CC(=O)Nc1cc(NC2=NC(c3cccc(NC(C)(C)C)c3)C3SC=CC3=N2)c(OC)cc1N1CCOCC1 (centres unmarked)	> 30%
C=CC(=O)Nc1cc(Nc2nc(-c3c[nH]c4ccccc34)c3sccc3n2)c(OC)cc1N1CCC(NC)CC1	> 30%

Would you kindly share the measured inhibition at 1 µM for C=CC(=O)Nc1cc(Nc2nc(-c3cccc(NC)c3)c3sccc3n2)c(OC)cc1OCCN1CCOCC1 ?
< 30%

---

subject of test: BTK (Homo sapiens, UniProt Q06187)
assay overview: BTK Enzyme Assay
Type: biochemical
measurement setup: 1 uM compound; read-out: BTK (% inh @ 1 uM)
Method: The following TABLE II lists compounds representative of the invention and their activity in BTK assays. In these assays, the following grading was used: A: >30% inhibition @1 μM; B: <30% inhibition @1 μM.
outcome measure: inhibition at 1 µM

Past entries and their recorded results:
molecule	inhibition at 1 µM
C=CC(=O)Nc1cc(Nc2nc(-c3cc[nH]c3)c3sccc3n2)c(OC)cc1N1CCN(C)CC1	> 30%
C=CC(=O)Nc1cc(Nc2nc(-c3ccc(NC(C)(C)C)cc3)c3sccc3n2)c(OC)cc1N1CCN(C)CC1	> 30%

Would you kindly share the measured inhibition at 1 µM for C=CC(=O)Nc1cc(NC2=NC(c3cccc(OC)c3)C3C(=N2)C=CN3C)c(OC)cc1N1CCC(N(C)C)CC1 (stereo not shown) ?
< 30%

Would you kindly share the measured inhibition at 1 µM for C=CC(=O)Nc1cc(Nc2nc(-c3cccc(NC)c3)c3ccsc3n2)c(OC)cc1N(C)CC ?
> 30%

Would you kindly share the measured inhibition at 1 µM for C=CC(=O)Nc1cc(NC2=NC(c3ccccc3)C3SC=CC3=N2)c(OC)cc1N1CCN(C)CC1 (stereo not shown) ?
< 30%

Would you kindly share the measured inhibition at 1 µM for C=CC(=O)Nc1cc(N(C)c2nc(-c3c[nH]c4ccccc34)c3sccc3n2)c(OC)cc1N1CCOCC1 ?
< 30%

Would you kindly share the measured inhibition at 1 µM for C=CC(=O)Nc1cc(Nc2nc(-c3c[nH]c4ccccc34)c3sccc3n2)c(OC)cc1N(C)CCN(C)C ?
> 30%

Sourced from patent US10844074B2
